measurement_target: Transient receptor potential cation channel subfamily V member 1 (Homo sapiens, UniProt Q8NER1)
Sequence (Q8NER1 whole entry): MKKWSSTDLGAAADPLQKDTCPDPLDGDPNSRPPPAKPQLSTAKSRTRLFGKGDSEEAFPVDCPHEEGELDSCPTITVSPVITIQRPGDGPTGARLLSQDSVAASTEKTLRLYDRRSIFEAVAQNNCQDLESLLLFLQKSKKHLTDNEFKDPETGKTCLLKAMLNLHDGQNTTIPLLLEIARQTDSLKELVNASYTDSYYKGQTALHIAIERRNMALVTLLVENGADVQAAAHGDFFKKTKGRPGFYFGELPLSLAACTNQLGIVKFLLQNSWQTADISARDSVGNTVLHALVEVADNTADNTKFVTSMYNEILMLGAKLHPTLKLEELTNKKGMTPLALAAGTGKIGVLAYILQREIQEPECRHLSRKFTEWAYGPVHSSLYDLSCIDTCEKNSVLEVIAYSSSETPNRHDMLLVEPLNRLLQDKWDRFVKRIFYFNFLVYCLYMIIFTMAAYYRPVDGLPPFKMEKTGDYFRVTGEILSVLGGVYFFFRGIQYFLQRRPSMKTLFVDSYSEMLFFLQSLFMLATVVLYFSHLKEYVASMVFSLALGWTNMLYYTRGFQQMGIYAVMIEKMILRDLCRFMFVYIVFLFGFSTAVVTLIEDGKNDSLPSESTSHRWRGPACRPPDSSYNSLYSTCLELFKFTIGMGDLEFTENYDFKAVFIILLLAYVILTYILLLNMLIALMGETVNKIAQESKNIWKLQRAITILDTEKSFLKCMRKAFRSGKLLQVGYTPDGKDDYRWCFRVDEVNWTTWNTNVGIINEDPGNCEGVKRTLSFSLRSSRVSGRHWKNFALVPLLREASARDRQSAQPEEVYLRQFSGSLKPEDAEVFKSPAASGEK
assay_name: Agonist activity at TRPV1
Type: functional
measured_endpoint: EC50 (nM)
Number only, in nM; omit the unit.

QUERY: Name the recorded EC50 of the item `CCCCC/C=C\C/C=C\C/C=C\C/C=C\CCCC(=O)Nc1ccc(O)cc1` in your answer.
RESULT: 26

---

assay_name: Inhibition of COX-mediated PGE2 production in C57BL/6 mouse brain homogenate
Assay type: tissue-based
measured_endpoint: IC50 (µM)
Number only, in µM; omit the unit.

QUERY: Name the recorded IC50 of the item `CCCCC/C=C\C/C=C\C/C=C\C/C=C\CCCC(=O)N(C)c1c(C)n(C)n(-c2ccccc2)c1=O` in your answer.
RESULT: 13.2

---

Entries annotated with measured pKi
measurement_target: Cannabinoid receptor 1 (Homo sapiens)
Sequence (P21554 whole entry): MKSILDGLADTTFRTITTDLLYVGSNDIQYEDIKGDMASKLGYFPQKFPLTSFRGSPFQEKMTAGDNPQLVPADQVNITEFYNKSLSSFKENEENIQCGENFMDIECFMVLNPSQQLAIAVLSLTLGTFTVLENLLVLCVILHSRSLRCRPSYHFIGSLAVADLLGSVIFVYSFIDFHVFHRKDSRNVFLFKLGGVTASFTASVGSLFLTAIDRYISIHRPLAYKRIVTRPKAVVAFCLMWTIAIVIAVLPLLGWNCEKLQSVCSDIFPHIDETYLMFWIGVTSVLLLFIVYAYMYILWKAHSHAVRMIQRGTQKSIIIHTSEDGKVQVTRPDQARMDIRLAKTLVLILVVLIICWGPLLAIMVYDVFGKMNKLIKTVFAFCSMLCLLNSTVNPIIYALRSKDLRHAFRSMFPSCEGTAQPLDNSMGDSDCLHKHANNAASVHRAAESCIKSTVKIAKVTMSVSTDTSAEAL
assay_name: Displacement of [3H]CP-55940 from human recombinant CB1 receptor expressed in HEK cells
Kindly note that pKi refers to -log10 of the concentration in mol/L and answer with the value alone.

compound | measurement_target | pKi
CCCCC/C=C\C/C=C\C/C=C\C/C=C\CCCC(=O)N(C)c1c(C)n(C)n(-c2ccccc2)c1=O | Cannabinoid receptor 1 (Homo sapiens) | 5.11

QUERY: Name the recorded pKi of the item `CCCCC/C=C\C/C=C\C/C=C\C/C=C\CCCC(=O)Nc1c(C)n(C)n(-c2ccccc2)c1=O` in your answer.
RESULT: 5.54

---

measurement_target: Prostaglandin G/H synthase 2 (Mus musculus)
Sequence (Q05769 whole entry): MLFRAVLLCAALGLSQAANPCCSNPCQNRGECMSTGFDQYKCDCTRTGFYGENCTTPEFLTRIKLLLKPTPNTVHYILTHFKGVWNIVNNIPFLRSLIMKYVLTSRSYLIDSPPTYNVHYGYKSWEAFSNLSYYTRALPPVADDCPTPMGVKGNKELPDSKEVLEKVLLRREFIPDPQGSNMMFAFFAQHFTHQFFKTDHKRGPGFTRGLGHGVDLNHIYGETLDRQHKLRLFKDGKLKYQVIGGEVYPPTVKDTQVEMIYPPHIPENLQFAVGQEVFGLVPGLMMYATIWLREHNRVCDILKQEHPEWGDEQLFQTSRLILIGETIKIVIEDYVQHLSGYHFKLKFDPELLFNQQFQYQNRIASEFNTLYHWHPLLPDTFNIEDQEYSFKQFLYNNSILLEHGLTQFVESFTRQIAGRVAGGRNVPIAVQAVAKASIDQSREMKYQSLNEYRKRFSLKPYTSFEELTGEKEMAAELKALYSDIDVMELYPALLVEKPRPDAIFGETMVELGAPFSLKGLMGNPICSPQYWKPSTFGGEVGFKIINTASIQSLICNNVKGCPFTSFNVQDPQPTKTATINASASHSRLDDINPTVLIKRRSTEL
measured_endpoint: pIC50
Kindly note that pIC50 refers to -log10 of the concentration in mol/L and answer with the value alone.

QUERY: Report the value of pIC50 obtained on Prostaglandin G/H synthase 2 (Mus musculus) for `Cc1c(N)c(=O)n(-c2ccccc2)n1C` .
RESULT: 3.00

---

Entries annotated with measured pKi
measurement_target: Cannabinoid receptor 2 (Homo sapiens)
Sequence (P34972 whole entry): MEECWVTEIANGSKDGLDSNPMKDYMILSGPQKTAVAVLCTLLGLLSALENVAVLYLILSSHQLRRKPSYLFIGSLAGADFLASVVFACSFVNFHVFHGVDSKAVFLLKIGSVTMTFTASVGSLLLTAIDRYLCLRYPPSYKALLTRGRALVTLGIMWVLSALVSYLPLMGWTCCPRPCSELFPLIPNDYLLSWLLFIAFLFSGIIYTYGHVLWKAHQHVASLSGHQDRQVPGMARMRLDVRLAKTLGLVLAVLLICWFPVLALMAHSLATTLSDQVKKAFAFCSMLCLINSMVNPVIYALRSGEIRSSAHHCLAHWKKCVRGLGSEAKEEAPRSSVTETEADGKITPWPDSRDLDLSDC
assay_name: Displacement of [3H]CP-55940 from human recombinant CB2 receptor expressed in HEK cells
Format: cell-based, HEK293
Kindly note that pKi refers to -log10 of the concentration in mol/L and answer with the value alone.

compound | pKi
CCCCC/C=C\C/C=C\C/C=C\C/C=C\CCCC(=O)Nc1c(C)n(C)n(-c2ccccc2)c1=O | 5.27

Now for the molecule whose pKi we want.
QUERY: Name the recorded pKi of the item `CCCCC/C=C\C/C=C\C/C=C\C/C=C\CCCC(=O)N(C)c1c(C)n(C)n(-c2ccccc2)c1=O` in your answer.
RESULT: 5.52

Source of measurements: ChEMBL document CHEMBL1926657
